Readings of IC50 for the listed compounds
# targetSystem: Receptor-interacting serine/threonine-protein kinase 1 (Homo sapiens, UniProt Q13546)
# Sequence (Q13546 whole entry): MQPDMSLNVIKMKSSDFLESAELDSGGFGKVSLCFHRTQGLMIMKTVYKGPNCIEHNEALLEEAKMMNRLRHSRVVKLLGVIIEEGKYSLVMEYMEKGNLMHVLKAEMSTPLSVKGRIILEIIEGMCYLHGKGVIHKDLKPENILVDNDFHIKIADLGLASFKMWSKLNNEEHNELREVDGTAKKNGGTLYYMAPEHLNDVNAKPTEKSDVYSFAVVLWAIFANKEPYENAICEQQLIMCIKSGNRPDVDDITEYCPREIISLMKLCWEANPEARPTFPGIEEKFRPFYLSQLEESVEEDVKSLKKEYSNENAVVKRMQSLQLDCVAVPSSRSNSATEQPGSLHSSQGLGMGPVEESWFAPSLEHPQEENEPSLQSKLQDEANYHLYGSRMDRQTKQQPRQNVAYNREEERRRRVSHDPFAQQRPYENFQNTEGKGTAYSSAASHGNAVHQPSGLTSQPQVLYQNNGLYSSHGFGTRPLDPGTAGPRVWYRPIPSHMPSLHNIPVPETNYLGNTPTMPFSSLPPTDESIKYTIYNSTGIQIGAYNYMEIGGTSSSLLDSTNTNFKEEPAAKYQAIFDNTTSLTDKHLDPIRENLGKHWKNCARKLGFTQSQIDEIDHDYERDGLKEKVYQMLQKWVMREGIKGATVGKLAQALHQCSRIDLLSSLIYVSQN
# measurementProtocol: Inhibition of human recombinant RIPK1 after 4 hrs by ADP-Glo assay

{"smilesStr": "Cc1cc(Nc2nc(Sc3ccc(NC(=O)C4CCCCC4)cc3)nc(N3CCN(C)CC3)n2)n[nH]1", "IC50, nM": 2470}
{"smilesStr": "Cc1cc(Nc2cc(N3CCN(C)CC3)nc(Nc3ccc(NC(=O)C4CC4)cc3)n2)n[nH]1", "IC50, nM": 178}
